Biological target: Aldehyde dehydrogenase 1A1 (Homo sapiens)
Assay: qHTS for Inhibitors of the Aldehyde Dehydrogenase Family (ALDH1A1) Confirmatory screens (AID 2061316); also: nearly all actives have a fitted effect of over 65% in size
Conditions: ALDH inhibition qHTS; series mostly up to 47.3 µM
Inconclusive results are not listed. The source made the active and inactive calls. Calls follow the shape of the dose curve; as a rule, active = well fitted inhibition curve with a large enough effect; inconclusive = small, poorly fitted or top-dose-only effect; inactive = no such curve, though single readings can be large or run the other way.
Labels: y for active, n for inactive

Cc1cc(C)nc(NC(=S)N2CCN(c3cccc4cnccc34)CC2)c1 ... y
Cc1ccc(NS(=O)(=O)c2cc3c(cc2-c2ccco2)NC(=O)CO3)cc1C ... y
O=C(Nc1cccc2nn(-c3ccc(F)cc3)cc12)c1ccccn1 ... y
O=C1Nc2c(Cl)cccc2/C1=C\c1cc(Cl)c(O)c(Cl)c1 ... y
Nc1ccccc1S(=O)(=O)Nc1cccc2cccnc12 ... n
CC(=O)Nc1ccc(-c2c(NC(C)=O)sc3c2CCNC3)cn1 ... y
c1nc(NCC2CCCCO2)c2cc(-c3ccc4c(c3)OCO4)ccc2n1 (stereo not given) ... y
Cc1ccc(OCCn2c(CCNC(=O)c3cccc(C(F)(F)F)c3)nc3ccccc32)cc1 ... n
COc1ccc(Cl)cc1C(=O)NCc1nnc2cc(-c3nc(C)no3)ccn12 ... n
C[C@@H](CO)Nc1cc2c(cc1[S+](=O)([O-])Nc1ccc(Cl)c(Cl)c1)CCC(=O)N2 ... n

meta.source: PubChem BioAssay (NCATS)
